Please respond with reported folding stability dG for every item in the list.
B1: r11_951_TrROS_Hall (parent)
chain: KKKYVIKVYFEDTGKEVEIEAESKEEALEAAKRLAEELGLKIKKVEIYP

# Variants of: B1
# PROTOCOL_DESCRIPTION: folding stability dG (cDNA display proteolysis); higher = more stable
# RUN_CONDITIONS: PBS, room temperature
Numbers only, in kcal/mol.

# batch: return folding stability dG for each of the 3 variants below
1. E18W
2. A35S
3. E22L

Resp:
1. 4.3
2. 4.35
3. 4.26

Just for reference, the MegaScale stability set (Tsuboyama et al. 2023) is where these values come from.
